Biological target: T1, recombinant hPDL-2 overexpressed on HEK 293 cells (human, UniProt Q9BQ51 20-273)
T1 chain: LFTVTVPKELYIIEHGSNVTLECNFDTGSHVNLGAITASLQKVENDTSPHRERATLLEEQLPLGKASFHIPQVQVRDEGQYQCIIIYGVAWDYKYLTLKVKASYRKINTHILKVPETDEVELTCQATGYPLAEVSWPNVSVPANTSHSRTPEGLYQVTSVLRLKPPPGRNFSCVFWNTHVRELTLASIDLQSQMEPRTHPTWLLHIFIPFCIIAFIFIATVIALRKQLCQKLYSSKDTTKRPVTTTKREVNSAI
Assay: flow cytometry, inhibition of soluble PD1-Fc binding to hPDL2-expressing HEK293 cells
Where no end group is shown, it is not given here.
Parameter: EC50

1) SNTSESFKFRVTQLAPKAQIKE-NH2 (not fully specified (residue 8)) [Compound 8]    0.722 nM
